# Protocol description: logP by reversed-phase HPLC (EEC Directive 79/831 Annex V.A8)
# Type: physicochemical
# Protocol conditions: reversed-phase C18 HPLC column, acidic range, pH 2.7, 0.1% aqueous formic acid/acetonitrile, read-out: logP (HCOOH) = logP[a]
# Method: The logP values were determined in accordance with EEC Directive 79/831 Annex V.A8 by HPLC (High Performance Liquid Chromatography) using reversed-phase columns (C 18) by the following methods: ^[a] […] Calibration was effected with unbranched alkan-2-ones (having 3 to 16 carbon atoms) with known logP values (logP values determined on the basis of the retention times by linear interpolation between two successive alkanones).
Endpoint name: chromatographic logP

A = Cc1cc(F)c(-c2cc(=O)n(C)c(=O)n2C)cc1SCC(F)(F)F
B = CCn1c(=O)c(F)c(Cl)n(C)c1=O
# input Larger number for chromatographic logP: A , or B ? Answer by quoting the chosen item's label.
# output A

1 = Cc1cc(F)c(-c2c(Cl)c(=O)n(C)c(=O)n2C)cc1SCC(F)(F)F
2 = CCn1c(=O)c(C)c(Cl)n(C)c1=O
# input Between the two listed entries 1 and 2 , which has its chromatographic logP at the higher number? Answer format: the label of the selected item.
# output 1

I = CCOC(=O)CC(=O)c1cc(SCC(F)(F)F)c(C)cc1F
II = Cc1cc(F)c(-c2cc(=O)n(C)c(=O)[nH]2)cc1SCC(F)(F)F
# input I'm curious whether I or II has the smaller chromatographic logP number. Which is it? Give the chosen item's label as your response.
# output II
(II: 2.38, I: 3.57)

I = Cc1cc(C)c(-c2cc(=O)n(C)c(=O)n2C)cc1SCC(F)(F)F
II = Cc1cc(F)c(-c2cc(=O)n(C)c(=O)n2C)cc1[S+]([O-])CC(F)(F)F (stereo not shown)
# input Short answer wanted: higher chromatographic logP, I or II ? Could you answer with the label of the item you picked?
# output I
(I: 2.98, II: 1.77)

----------
# Protocol description: logP by reversed-phase HPLC (EEC Directive 79/831 Annex V.A8)
# Assay type: physicochemical
# Protocol conditions: neutral range, pH 7.8, 0.001 molar aqueous ammonium hydrogencarbonate/acetonitrile
Endpoint name: logP (neutral) = logP[b]

# input Supply recorded logP (neutral) = logP[b] for CCn1c(-c2cc([S+]([O-])CC(F)(F)F)c(C)cc2F)cc(=O)n(CC)c1=O (centres unmarked) here.
# output 2.28

# input Give a short answer stating reported logP (neutral) = logP[b] for Cc1cc(F)c(-c2cc(=O)n(C)c(=O)[nH]2)cc1[S+]([O-])CC(F)(F)F (centres unmarked) .
# output 1.43

# input For the molecule CCn1c(-c2cc(SCC(F)(F)F)c(C)cc2F)cc(=O)n(CC)c1=O , report logP (neutral) = logP[b].
# output 3.47

I = Cc1cc(F)c(-c2cc(=O)n(C(C)C)c(=O)n2C(C)C)cc1SCC(F)(F)F
II = Cc1cc(C)c([S+]([O-])CC(F)(F)F)cc1-c1cc(=O)n(C)c(=O)n1C (centres unmarked)
# input Choose between I and II : whose measured logP (neutral) = logP[b] value is numerically larger? Kindly state the label of the option you pick.
# output I

1 = CCCn1c(-c2cc(SCC(F)(F)F)c(C)cc2F)cc(=O)n(CCC)c1=O
2 = CCn1c(=O)c(F)c(-c2cc([S+]([O-])CC(F)(F)F)c(C)cc2F)n(C)c1=O (centres unmarked)
# input Could you point out whether the larger logP (neutral) = logP[b] belongs to 1 or to 2 ? Let me know the label of the one you choose.
# output 1
(1: 4.16, 2: 2.19)

----------
As shown below, each of these compounds has a reported efficacy (spider mites killed) value.
# Test system: Tetranychus urticae
# Protocol description: Tetranychus urticae spray test, OP-resistant (bean leaf discs)
# Type: in vivo
# Protocol conditions: application rate 500 g/ha, after 6 days
Answer format: numeric, % implied, no suffix.

# input Find the measured efficacy (spider mites killed) of Cc1cc(F)c(-c2cc(=O)n(CC(F)(F)F)c(=S)n2C)cc1SCC(F)(F)F [Example I-15] and report it.
# output 90

# input Return value of efficacy (spider mites killed) for input CCn1c(-c2cc(SCC(F)(F)F)c(C)cc2F)cc(=O)n(CC)c1=O [Example I-7] , no commentary.
# output 90

# input For CCCn1c(-c2cc(SCC(F)(F)F)c(C)cc2F)cc(=O)n(CCC)c1=O [Example I-5] , write its efficacy (spider mites killed).
# output 90

# input Input CCn1c(-c2cc([S+]([O-])CC(F)(F)F)c(C)cc2F)cc(=O)n(CC)c1=O (stereo not shown) [Example I-10] , output reported efficacy (spider mites killed).
# output 100

# input Please give the documented efficacy (spider mites killed) of Cc1cc(F)c(-c2cc(=O)n(C)c(=O)n2C)cc1SCC(F)(F)F [Example I-2]
# output 100

Others:
# input Tell me its efficacy (spider mites killed) given Cc1cc(C)c([S+]([O-])CC(F)(F)F)cc1-c1cc(=O)n(C)c(=O)n1C (stereo not shown) [Example I-12] as the entry.
# output 100

# input State its efficacy (spider mites killed) for this compound: Cc1cc(F)c(-c2c(Cl)c(=O)n(C)c(=O)n2C)cc1SCC(F)(F)F [Example I-16]
# output 90

----------
# Protocol description: logP by reversed-phase HPLC (EEC Directive 79/831 Annex V.A8)
# Format: physicochemical
# Protocol conditions: reversed-phase C18 HPLC column, neutral range, pH 7.8, 0.001 molar aqueous ammonium hydrogencarbonate/acetonitrile, read-out: logP (neutral) = logP[b]
# Procedure: The logP values were determined in accordance with EEC Directive 79/831 Annex V.A8 by HPLC (High Performance Liquid Chromatography) using reversed-phase columns (C 18) by the following methods: ^[a] […] Calibration was effected with unbranched alkan-2-ones (having 3 to 16 carbon atoms) with known logP values (logP values determined on the basis of the retention times by linear interpolation between two successive alkanones).
Endpoint name: chromatographic logP

# input Please give the documented chromatographic logP of Cc1cc(F)c(-c2cc(=O)n(C)c(=O)n2C)cc1SCC(F)(F)F
# output 2.74

# input Item Cc1cc(F)c(-c2cc(=O)n(C)c(=O)n2C)cc1[S+]([O-])CC(F)(F)F (stereo not drawn) : provide chromatographic logP
# output 1.75

# input Look up and report measured chromatographic logP for this entry: CCn1c(=O)c(F)c(-c2cc(SCC(F)(F)F)c(C)cc2F)n(C)c1=O
# output 3.42

I = CCOC(=O)CC(=O)c1cc(SCC(F)(F)F)c(C)cc1F
II = Cc1cc(F)c(-c2cc(=O)[nH]c(=S)[nH]2)cc1SCC(F)(F)F
III = Cc1cc(F)c(-c2cc(=O)n(C)c(=O)[nH]2)cc1SCC(F)(F)F
# input Endpoint returns the given compounds ordered by ascending chromatographic logP. Give the labels in the order specified.
# output II, III, I

----------
# Protocol description: logP by reversed-phase HPLC (EEC Directive 79/831 Annex V.A8)
# Format: physicochemical
# Protocol conditions: acidic range, pH 2.7, 0.1% aqueous formic acid/acetonitrile
Endpoint name: logP (HCOOH) = logP[a]

# input Report measured logP (HCOOH) = logP[a]; entry is Cc1cc(F)c(-c2cc(=O)n(C(C)C)c(=O)n2C(C)C)cc1SCC(F)(F)F
# output 4.52

I = Cc1cc(F)c(-c2cc(=O)n(C)c(=O)[nH]2)cc1[S+]([O-])CC(F)(F)F (stereo not shown)
II = CCn1c(=O)c(F)c(-c2cc([S+]([O-])CC(F)(F)F)c(C)cc2F)n(C)c1=O (stereo not shown)
# input Select one. Lower logP (HCOOH) = logP[a]: I or II # reply format: chosen label
# output I
(I: 1.41, II: 2.20)

a = Cc1cc(C)c([S+]([O-])CC(F)(F)F)cc1-c1cc(=O)n(C)c(=O)n1C (stereo not shown)
b = Cc1cc(F)c(-c2cc(=O)n(CC(F)(F)F)c(=S)n2C)cc1SCC(F)(F)F
c = CCn1c(=O)[nH]c(-c2cc(SCC(F)(F)F)c(C)cc2F)c(F)c1=O
# input Could you please order the items by logP (HCOOH) = logP[a], going from the lowest number to the highest? # output: labels, in the requested order
# output a, c, b

----------
# Protocol description: logP by reversed-phase HPLC (EEC Directive 79/831 Annex V.A8)
# Format: physicochemical
# Protocol conditions: acidic range, pH 2.7, 0.1% aqueous formic acid/acetonitrile
Endpoint name: logP (HCOOH) = logP[a]

Example entries and their recorded answers appear below.
# input Indicate its recorded logP (HCOOH) = logP[a]; the molecule in question is CCCn1c(-c2cc(SCC(F)(F)F)c(C)cc2F)cc(=O)n(CCC)c1=O
# output 4.26

# input Using known records, supply logP (HCOOH) = logP[a] for Cc1cc(F)c(-c2cc(=O)n(C(C)C)c(=O)n2C(C)C)cc1[S+]([O-])CC(F)(F)F (stereo not shown)
# output 3.19

1 = CCn1c(-c2cc([S+]([O-])CC(F)(F)F)c(C)cc2F)cc(=O)n(CC)c1=O (stereo not shown)
2 = CCn1c(-c2cc(SCC(F)(F)F)c(C)cc2F)cc(=O)n(CC)c1=O
# input For 1 and 2 , which recorded logP (HCOOH) = logP[a] is lower? Which one? Tell me its label.
# output 1
(1: 2.37, 2: 3.54)
